# TARGET_SYSTEM: T1, murine uPAR (form not stated) (mouse, UniProt P35456 24-297, limits assumed)
# T1 construct: also called mouse uPAR
# T1 sequence (looked up): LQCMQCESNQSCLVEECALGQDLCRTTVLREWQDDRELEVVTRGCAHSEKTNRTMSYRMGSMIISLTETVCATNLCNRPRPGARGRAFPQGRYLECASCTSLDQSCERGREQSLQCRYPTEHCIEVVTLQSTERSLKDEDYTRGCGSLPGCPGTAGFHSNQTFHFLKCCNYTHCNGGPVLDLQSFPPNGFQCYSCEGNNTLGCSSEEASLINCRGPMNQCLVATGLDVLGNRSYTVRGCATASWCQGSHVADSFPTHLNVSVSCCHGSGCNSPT
# PROTOCOL_TEXT: summary column Murine X-reactivity
RECORDED_ENDPOINT: binding result

INSERT INTO assay_data (binder, test_value) VALUES
  ('anti-uPAR monoclonal antibody 1.113.2 (antibody, V domains shown) VH: QVQLVESGGGVVQPGRSLRLSCAASGFTFSSYGMHWVRQAPGKGLEWVAVIWYDGSNKYYADSVKGRFTISRDNSKNTLYLQMNSLRAEDTAVYYCARDLAALYYYYGMHVWGQGTTVTVSS VL: EIVMTQSPATLSVSPGERATLSCRASQSFSSNLAWYQQKPGQAPRLLIYGASTRATGIPARFSGSGSGTEFTLTISSLQSEDFAVYYCQQNNNWPRTFGQGTKVEIK', 'no binding'),
  ('fully human monoclonal antibody 2.6.1 (ATCC Accession Number PTA-7475) (antibody, V domains shown, also called mAb 2.6.1) VH: EVQLVESGGGLIQPGGSLRLSCAASGFTVITNYMNWVRQAPGKGLEWVSIIYTGGSTSYADSVKGRFTVSRDNSKNTLYLHMNSLRVEDTAVYYCAREIAVAGYYGMDVWGQGTTVTVS VL: DIQMTQSPSSLSASVGDRVTITCRASQGIRNDLGWYQQKPGKAPKRLIYAASSLQSGVPSRFSGSGSGTEFTLTISSLQPEDFATYYCLQHNSYPLTFGGGTRVEIK', 'no binding');

Just for reference, patent US20080152587A1 is where these values come from.
